Experiment: Cytotoxicity assay (trypan blue exclusion, propidium iodide)
Type: cell-based, human
Settings: human, MT-4 cells; read-out: CC50 (50% cytotoxic concentration)
Experimental: Cytotoxicity Assay. Cellular toxicity of the compounds was measured by trypan blue exclusion and also by Propidium Iodide by flow cytometry after 3 or 4 days of incubation, in parallel with the CD4 antigen expression. The CC50 value of each CADA analog is the concentration (in μg/ml) required to reduce the viability of the cells by 50%.
Measured CC50 by item
measure: CC50 (µg/mL)

{"compound": "C=C1CN(S(=O)(=O)c2ccc(C)cc2)CCCN(CCC)CCCN(S(=O)(=O)c2ccc(C)cc2)C1", "measured value": 20.7}
{"compound": "C=C1CN(S(=O)(=O)c2ccc(C)cc2)CCCN(C(=O)OCCC)CCCN(S(=O)(=O)c2ccc(C)cc2)C1", "measured value": 25.5}
{"compound": "C=C1CN(S(=O)(=O)c2ccc(C)cc2)CCCN(C2CCCC2)CCCN(S(=O)(=O)c2ccc(C)cc2)C1", "measured value": 17}
{"compound": "C=C1CN(S(=O)(=O)c2ccc(C)cc2)CCCN(CC2CCCCC2)CCCN(S(=O)(=O)c2ccc(C)cc2)C1", "measured value": 20.7}
{"compound": "Cc1ccc(S(=O)(=O)N2CCCN(Cc3ccccc3)CCCN(S(=O)(=O)c3ccc(C)cc3)CC(CCl)C2)cc1", "measured value": 30.7}
{"compound": "C=C1CN(S(=O)(=O)c2ccc(C)cc2)CCCN(Cc2ccc[nH]2)CCCN(S(=O)(=O)c2ccc(C)cc2)C1", "measured value": 20.2}
{"compound": "C=C1CN(S(=O)(=O)c2ccc(C)cc2)CCCN(CC2CC=CCC2)CCCN(S(=O)(=O)c2ccc(C)cc2)C1 (stereo not shown)", "measured value": 22.2}

Data provenance: patent US20040220164A1
